All figures here come from patent US20070077283A1.

# System: human-derived tracheal/bronchial epithelial cells (EpiAirway Tissue Model)
# Assay remarks: in vitro
# Experimental parameters: lipid 1000 μM; percent of Triton-X100 LDH levels
Attribute measured: Cytotoxic Effect (LDH) 1 hr. Post-treatments

# Compound, Measured
records = [
    ("CCCCCCCCCCCCC/C=C/[C@@H](O)[C@@H](N)CO[C@@H]1O[C@H](CO)[C@H](O)[C@H](O)[C@H]1O", "26%"),
    ("CCCCCCCCCCCCCCCC(=O)OC[C@H](COP(=O)([O-])OCC[N+](C)(C)C)OC(=O)CCCC=O", "21%"),
    ("CCCCCCCCCCCCC/C=C/[C@@H](O)[C@H](COP(=O)(O)O)NC(C)=O.N [N-acetoyl ceramide-1-phosphate]", "2%"),
    ("CCCCCCCCCCCCC/C=C/[C@@H](O)[C@@H](N)CO[C@@H]1O[C@H](CO)[C@@H](O[C@@H]2O[C@H](CO)[C@H](O)[C@H](O)[C@H]2O)[C@H](O)[C@H]1O", "14%"),
]

====

# reported % FD3 Permeation; entries follow
# Test system: human-derived tracheal/bronchial epithelial cells (EpiAirway Tissue Model)
# Assay remarks: FITC-Dextran permeation assay across epithelial cell monolayer
# Type: cell-based
# Experimental parameters: lipid 1000 μM in Buffer II

# Compound, % FD3 Permeation / %
measured = [
    ("CCCCCCCCCCCCCCCCOC[C@H](COP(=O)([O-])OCC[N+](C)(C)C)OC(C)=O", 27),
    ("C=CCC(=O)O[C@H](COCCCCCCCCCCCCCCCC)COP(=O)([O-])OCC[N+](C)(C)C", 8),
    ("CCCCCCCCCCCCCCCC(=O)OC[C@H](COP(=O)([O-])OCC[N+](C)(C)C)OC(=O)CCCC=O", 9),
    ("CCCCCCCCCCCCCCCCCCOC[C@H](COP(=O)([O-])OCC[N+](C)(C)C)OC(C)=O", 27),
    ("CCCCCCCCCCCCCCCCOC[C@@H](COP(=O)([O-])OCC[N+](C)(C)C)OC(C)=O [C16 Enantiomeric PAF]", 23),
]

====

# Assay remarks: in vitro
# Experimental parameters: % Cytotoxicity, lipid 1000 μM in Buffer I; apical LDH release
# reported cytotoxicity at 1 h, 1000 μM; entries follow
Attribute measured: cytotoxicity at 1 h, 1000 μM

# Compound, Attribute measured, Measured
rows = [
    ("CCCCCCCCCCCCCCCC(=O)OC[C@H](COP(=O)([O-])OCC[N+](C)(C)C)OC(=O)CCCC=O", "cytotoxicity at 1 h, 1000 μM", "15%"),
    ("CCCCCCCCCCCCCCCCOC[C@@H](COP(=O)([O-])OCC[N+](C)(C)C)OC(C)=O [C16 Enantiomeric PAF]", "cytotoxicity at 1 h, 1000 μM", "34%"),
    ("CCCCCCCCCCCCCCCCOC[C@H](COP(=O)([O-])OCC[N+](C)(C)C)OC(C)=O", "cytotoxicity at 1 h, 1000 μM", "43%"),
]

====

# Assay remarks: Cell viability (MTT assay)
# Format: cell-based, human
# Experimental parameters: human; PN159 25 μM / PYY 13.67 mg/mL (High)
# Procedure: Cell viability will be assessed using the MTT assay (MTT-100, MatTek kit). This kit measures the uptake and transformation of tetrazolium salt to formazan dye. […] Two hundred microliters of the mixed extracted solution along with extracted blanks (negative control) was transferred to a 96-well plate for measurement with a microplate reader. The optical density (OD) of the samples was measured at 570 nm with the background subtraction at 650 nm on a plate reader. […]

# Compound, Measure unit, viability at 25 µM
data = [
    ("CC(C)C[C@H](NC(=O)[C@H](C)NC(=O)[C@H](CCCCN)NC(=O)[C@H](CC(C)C)NC(=O)[C@H](C)NC(=O)[C@H](CC(C)C)NC(=O)[C@H](CCCCN)NC(=O)[C@H](CC(C)C)NC(=O)[C@H](C)NC(=O)[C@H](CC(C)C)NC(=O)[C@@H](N)CCCCN)C(=O)N[C@@H](CCCCN)C(=O)N[C@@H](C)C(=O)N[C@@H](C)C(=O)N[C@@H](CC(C)C)C(=O)N[C@@H](CCCCN)C(=O)N[C@@H](CC(C)C)C(=O)N[C@@H](C)C(N)=O [PN159, reference compound]", "%", 89),
]

====

# System: human-derived tracheal/bronchial epithelial cells (EpiAirway Tissue Model)
# Assay remarks: in vitro
# Experimental parameters: human, 1 h, 1000 μM
Attribute measured: Cytotoxic Effect (LDH) 1 hr. Post-treatments

# Smiles str, Measured
measured = [
    ("CCCCCCCCCCCCCCCC(=O)OC[C@H](COP(=O)([O-])OCC[N+](C)(C)C)OC(=O)CCCCCCCC=O", "10%"),
    ("CCCCCCCCCCCCCCCCCCOC[C@H](COP(=O)([O-])OCC[N+](C)(C)C)OC", "50%"),
    ("CCCCCCCCCCCCCCCCOC[C@H](COP(=O)([O-])OCC[N+](C)(C)C)OC(=O)CCCCCCCC(=O)O", "26%"),
    ("CCCCCCCCCCCCCCCC(=O)OC[C@H](COP(=O)([O-])OCC[N+](C)(C)C)OC(=O)CCCC(=O)O", "21%"),
]

====

# Tested on: human-derived tracheal/bronchial epithelial cells (EpiAirway Tissue Model)
# Assay remarks: Transepithelial electrical resistance (TER) of an epithelial cell monolayer
# Format: cell-based
# Experimental parameters: lipid 500 μM (Table 4)

# Smiles str, Mean % of Original TER Value / %
measured = [
    ("CCCCCCCCCCCCCCCCOC[C@H](COP(=O)([O-])OCCCCCC[N+](C)(C)C)OC(C)=O", 20),
    ("CCCCCCCCCCCCCCCCOC[C@H](COP(=O)(O)OCC[N+](C)(C)C)OCC", 112),
    ("CCCCCCCCCCCCCCCCOC[C@H](COP(=O)(O)OCC[N+](C)(C)C)OC", 8),
    ("CCCCCCCCCCCCCCCCOC[C@H](COP(=O)([O-])OCC[N+](C)(C)C)OC(=O)NC", 10),
]

====

# reported Mean % of Original TER Value; entries follow
# System: human-derived tracheal/bronchial epithelial cells (EpiAirway Tissue Model)
# Assay remarks: Transepithelial electrical resistance (TER) of an epithelial cell monolayer
# Format: cell-based
# Experimental parameters: lipid 1000 μM; lower value = greater TER reduction (Table 4)
Attribute measured: Mean % of Original TER Value (%)

# Compound, Measured
records = [
    ("CCCCCCCCCCCCCCCCOC[C@H](COP(=O)(O)OCC[N+](C)(C)C)OCC [2-O-Ethyl-PAF]", 70),
    ("CCCCCCCCCCCCCCCCOC[C@H](COP(=O)([O-])OCC[N+](C)(C)C)OC(=O)NC [C-PAF]", 2),
    ("CCCCCCCCCCCCCCCCOC[C@H](COP(=O)([O-])OCCCCCC[N+](C)(C)C)OC(C)=O [PAF-antagonist]", 9),
    ("CCCCCCCCCCCCCCCCOC[C@H](COP(=O)(O)OCC[N+](C)(C)C)OC [2-O-Methyl-PAF]", 2),
    ("CC/C=C\\C/C=C\\C/C=C\\C/C=C\\C/C=C\\CCCC(=O)O[C@H](COCCCCCCCCCCCCCCCC)COP(=O)([O-])OCC[N+](C)(C)C [C16-20:5 PC]", 90),
    ("CC/C=C\\C/C=C\\C/C=C\\C/C=C\\C/C=C\\C/C=C\\CCC(=O)O[C@H](COCCCCCCCCCCCCCCCC)COP(=O)([O-])OCC[N+](C)(C)C [C16-22:6 PC]", 97),
]

====

# Tested on: human-derived tracheal/bronchial epithelial cells (EpiAirway Tissue Model)
# Assay remarks: FITC-Dextran permeation assay across epithelial cell monolayer
# Format: cell-based
# Experimental parameters: lipid 1000 μM (Table 5)
# Description: Each tissue insert was placed in an individual well containing 1 ml of MatTek basal media. […] FITC-labeled dextran solution was added to inserts apically and a fluorescence measurement was taken from the basolateral media after the incubation period. Two hundred microliters of the basal media for each test formulation was transferred to a dark-wall fluorescent reading plate. […] Permeation is expressed as percent permeation and was calculated as follows: [formula] […]
Attribute measured: % FITC-Dextran Permeation FD3

# Smiles str, Attribute measured, Measured
rows = [
    ("CCCCCCCCCCCCCCCCOC[C@H](COP(=O)([O-])OCCCCCC[N+](C)(C)C)OC(C)=O", "% FITC-Dextran Permeation FD3", "11%"),
    ("CCCCCCCCCCCCCCCCCCOC[C@H](COP(=O)([O-])OCC[N+](C)(C)C)OC(C)=O", "% FITC-Dextran Permeation FD3", "24%"),
    ("CCCCCCCCCCCCCCCC(=O)OC[C@H](COP(=O)([O-])OCC[N+](C)(C)C)OC(=O)CCCC=O", "% FITC-Dextran Permeation FD3", "10%"),
]
